assay: gradient 5% acetonitrile 3 min, to 50% in 2 min, to 85% in 15 min, held 3 min, 100 µL/min; details: column: Zorbax Extend-C18 2.1 x 50 mm; eluents: water / acetonitrile, 0.1% formic acid
Entries are grouped by RP-LC retention time into these classes: class 1 = under 700 s, class 2 = from 700 s up to 900 s, class 3 = 900 s and over

Field: example entries. Status: answers known.
CCC(C)NC(=O)c1ccc(NC(=O)C2CC2)cc1N1CCCCCC1 (stereo not given); class 2
CCOC(=O)CCNC(=O)N1CCCCCCN(C)C(=O)CC1; class 1

Now for another entry.
Ask: Which category does the recorded RP-LC retention time put "Cc1nc(Nc2ccc(F)cn2)sc1C(=O)N1CCN(c2ccccn2)CC1" in?
Result: class 1

* * *

experiment: gradient 5% acetonitrile 3 min, to 50% in 2 min, to 85% in 15 min, held 3 min, 100 µL/min; conditions: column: Zorbax Extend-C18 2.1 x 50 mm; eluents: water / acetonitrile, 0.1% formic acid
observable: RP-LC retention time (s)
Lab book: enter the figure in s, no units written.

// solved cases for RP-LC retention time follow
O=C(NC1CCN(c2cc(-c3cccs3)[nH]n2)C1)c1ccc2nc[nH]c2c1 (centres undefined); 564
O=C(c1ccc(-c2ccc3c(c2)CCN3C(=O)Nc2ccc3c(c2)OCCO3)cc1)N1CCOCC1; 804
Cc1cc(C)cc(Nc2ncccc2S(N)(=O)=O)c1; 898
Cc1nc(-c2ccccc2)sc1C(=O)Nc1c(C)nc2ccc(Cl)cn2c1=O; 737
CCOc1ccc(CNC(=O)C2CCN(C(=O)C3Sc4ccccc4NC3=O)CC2)cc1OC (centres undefined); 712
Cc1cccc(-c2noc(Cn3c(=O)n(-c4cccc(F)c4)c(=O)c4sccc43)n2)c1; 1030
Cc1ccc2c(Nc3ccc(S(N)(=O)=O)cc3)c(C(=O)N3CCSCC3)cnc2n1; 1370
Cc1ccc(C)c(NC(=O)N(C)CC2CCOC2)c1 (centres undefined); 705

Ask: Param item = CCCOc1nc2ccccc2nc1N1CCCC(C(=O)NCC2CCCO2)C1 (centres undefined) ; retrieve measured RP-LC retention time.
Result: 1010

Ask: Param item = "Cc1noc([C@@H]2CN(C(=O)Cc3ccsc3)C[C@H]2C(N)=O)n1" ; retrieve measured RP-LC retention time.
Result: 618

Ask: Param item = COc1cccc2c(C)nc(NC3=NCN(CC4CCCO4)CN3)nc12 (centres undefined) ; retrieve measured RP-LC retention time.
Result: 627

Ask: Param item = "O=C(Nc1cccc2c(=O)cc(-c3nn[nH]n3)oc12)c1ccc(OCCCCc2ccccc2)cc1" ; retrieve measured RP-LC retention time.
Result: 1180

Ask: Param item = "CCOC(=O)c1c(C)[nH]c(C(=O)N2CCC(CC(=O)NCc3ccccc3C)CC2)c1C" ; retrieve measured RP-LC retention time.
Result: 802

* * *

assay: gradient 5% acetonitrile 3 min, to 50% in 2 min, to 85% in 15 min, held 3 min, 100 µL/min; conditions: column: Zorbax Extend-C18 2.1 x 50 mm; eluents: water / acetonitrile, 0.1% formic acid
observable: RP-LC retention time (s)
Lab book: enter the figure in s, no units written.

Ask: Param item = "Cc1ccc(-c2noc(Cn3ncn4nc(-c5ccc(C)cc5C)cc4c3=O)n2)cc1" ; retrieve measured RP-LC retention time.
Result: 1270

Ask: Param item = "COc1cccc(-c2noc(Cc3nnc(-c4cccc(Br)c4)o3)n2)c1OC" ; retrieve measured RP-LC retention time.
Result: 1010

* * *

assay: gradient 5% acetonitrile 3 min, to 50% in 2 min, to 85% in 15 min, held 3 min, 100 µL/min; details: column: Zorbax Extend-C18 2.1 x 50 mm; eluents: water / acetonitrile, 0.1% formic acid
Tag: Yes if measured RP-LC retention time is not below 900 s, No if it is.

Field: example entries. Status: answers known.
O=C(CCC1CCN(c2cc(NC3CC3)ncn2)CC1)NCc1ccc(F)c(Cl)c1; No
Cc1ccc(Nc2c(-c3ccccc3O)nc3ncccn23)cc1Cl; No
COc1ccc(CCNC(=O)[C@@H]2[C@H](c3cc(OC)c(OC)c(OC)c3)c3cc4c(cc3[C@H](O)[C@H]2CO)OCO4)cc1OC; No
CCn1cc(C)c(C(=O)O)c1CC(=O)N1CCCc2ccccc21; No
CCc1nc(-c2cccc(-c3noc(CNC(=O)Cc4ccc(Cl)cc4)n3)c2)cs1; Yes
Cc1noc(-c2cc(=O)n(CC(=O)Nc3ccccc3)c3ccccc23)n1; No
O=C(NCc1cccc(C(F)(F)F)c1)C1CCCN(c2nccnc2Oc2ccccc2)C1 (centres undefined); Yes
O=C(NCc1ccc(F)cc1F)c1ccc(NC(=O)C2CC2)cc1N1CCOCC1; No
COC(=O)c1cnc2nc(C)ccc2c1Nc1cccc(F)c1; No
O=C(NCCn1c(=O)n(Cc2ccc(F)cc2)c2cccnc21)c1cnccn1; No

Ask: Please tell me: is the compound COCCOCC(=O)N1[C@@H]2CC[C@H]1CC(NC(=O)c1cnc(C)cn1)C2 (some centres undefined) at or over 900 s in terms of RP-LC retention time?
Result: No

Ask: Please tell me: is the compound "COC(=O)c1c(C)[nH]c(C(=O)N2CCC(CC(=O)NCc3ccc(C)o3)CC2)c1C" at or over 900 s in terms of RP-LC retention time?
Result: No

Ask: Please tell me: is the compound "COc1ccc(CCN2CC(=O)N(c3cc(C)cc(C)c3)[C@@H]3CS(=O)(=O)C[C@@H]32)cc1" at or over 900 s in terms of RP-LC retention time?
Result: No

Ask: Please tell me: is the compound "COc1ccc(Cl)cc1S(=O)(=O)N1CCC(C(=O)NCCCOC(C)C)CC1" at or over 900 s in terms of RP-LC retention time?
Result: No

Ask: Please tell me: is the compound "CC(C)Cn1c(CCNC(=O)c2ccccc2)nc2cccnc21" at or over 900 s in terms of RP-LC retention time?
Result: No

Ask: Please tell me: is the compound "CC1CCN(c2cc3c(cc2NC(=O)COc2ccc(Cl)cc2)n(C)c(=O)c(=O)n3C)CC1" at or over 900 s in terms of RP-LC retention time?
Result: Yes

* * *

Below, each entry is listed alongside its reported RP-LC retention time.
experiment: gradient 5% acetonitrile 3 min, to 50% in 2 min, to 85% in 15 min, held 3 min, 100 µL/min; details: column: Zorbax Extend-C18 2.1 x 50 mm; eluents: water / acetonitrile, 0.1% formic acid
Lab book: enter the figure in s, no units written.

Ask: Param item = "Cn1ccnc1SCC(=O)Nc1nc(-c2ccc(Cl)cc2)cs1" ; retrieve measured RP-LC retention time.
Result: 690

Ask: Param item = "COc1ccc(-c2nnc(-c3ccc(C)c(S(=O)(=O)NC(C)C)c3)o2)cc1OC" ; retrieve measured RP-LC retention time.
Result: 873

Ask: Param item = "COCCOc1ccc2c(c1)ncn2-c1ccc2cccc(N3CCC(N)CC3)c2n1" ; retrieve measured RP-LC retention time.
Result: 645

Ask: Param item = CCc1ccccc1NC(=O)C1CCN(S(C)(=O)=O)c2cc(C)ccc2O1 (centres undefined) ; retrieve measured RP-LC retention time.
Result: 880

* * *

assay: gradient 5% acetonitrile 3 min, to 50% in 2 min, to 85% in 15 min, held 3 min, 100 µL/min; conditions: column: Zorbax Extend-C18 2.1 x 50 mm; eluents: water / acetonitrile, 0.1% formic acid
Below, each entry is listed alongside its reported RP-LC retention time.
Lab book: enter the figure in s, no units written.

// solved cases for RP-LC retention time follow
CN1CCN(C(=O)c2noc3c2CC(C(C)(C)C)CC3)CC1 (stereo not given); 582
Cc1cnc(C(=O)N[C@@H]2CCC[C@@H]2C(=O)NC(C)C)cn1; 582

Ask: Param item = "CCc1ccc(Oc2cc(N3CCC(C(=O)NCCC(C)C)CC3)ncn2)cc1" ; retrieve measured RP-LC retention time.
Result: 1040

Ask: Param item = "CCc1cc(C(=O)Nc2cc(C)ccc2C)nc2ccnn12" ; retrieve measured RP-LC retention time.
Result: 1140

Ask: Param item = "Cc1ccc2oc(-c3nnc(C(=O)NCCCN4CCN(C)CC4)o3)c(C)c2c1" ; retrieve measured RP-LC retention time.
Result: 622

* * *

assay: gradient 5% acetonitrile 3 min, to 50% in 2 min, to 85% in 15 min, held 3 min, 100 µL/min; settings: column: Zorbax Extend-C18 2.1 x 50 mm; eluents: water / acetonitrile, 0.1% formic acid
Tag: 1 (yes) if measured RP-LC retention time is not below 1000 s, 0 (no) if it is.

Field: example entries. Status: answers known.
CCCn1cc(CCNC(=O)c2cccc(Br)c2)c2cccnc21; 0 (no)
O=C(Cc1cccs1)N1CCc2[nH]cnc2C1c1ccccc1 (centres undefined); 0 (no)
Cc1ccc(CNC(=O)c2cc3n(n2)CC(C)(C(=O)NC2CCCCC2)N(C)C3=O)cc1 (centres undefined); 0 (no)
CCOc1ccccc1NC(=O)Cn1nc2cc(C)nc(-c3ccccc3)n2c1=O; 0 (no)
CCc1nnc(NC(=O)CSc2nnc(Cn3c(=O)sc4ccccc43)n2C)s1; 0 (no)
Cc1cc(-c2c(C)sc(C)c2S(=O)(=O)Nc2cccc(Cl)c2)n[nH]1; 1 (yes)

Ask: Please tell me: is the molecule COc1cc2c(cc1OC)C(C(=O)N1CCN(c3ccccn3)CC1)C(c1cccnc1)N(C)C2=O (centres undefined) at or over 1000 s in terms of RP-LC retention time?
Result: 1 (yes)

Ref: the METLIN SMRT retention time set (Domingo-Almenara et al. 2019)
